test system: rodent lifetime carcinogenesis bioassay, tumor incidence TD50; assay: carcinogenic potency in animals, long-term in vivo studies, CPDB compilation (AID 1745844); settings: rat; strain Fischer 344; females; by gavage; site: kidney; lesion: tubule adenoma; dosed 104 weeks; study length 104 weeks
Parameter measured: TD50

stdin: Any idea what its TD50 is? The molecule is O=P(OCCCl)(OCCCl)OCCCl
stdout: 187 mg/kg/day

* * *

test system: rodent lifetime carcinogenesis bioassay, tumor incidence TD50; assay: carcinogenic potency in animals, long-term in vivo studies, CPDB compilation (AID 1745844); conditions: rat; strain Fischer 344; females; in feed; site: uterus; lesion: endometrial stromal polyp; dosed 103 weeks; study length 104 weeks
The source made the active and inactive calls. How the calls were made is not given here.
Below, each entry is listed with its recorded TD50.

Solved entries (count: 2):
Smiles record: CNc1ccc(N(CCO)CCO)cc1[N+](=O)[O-]
Parameter measured: TD50
Result: 429 mg/kg/day
--
Smiles record: O=S(=O)(O)c1ccc(N=Nc2cc(S(=O)(=O)O)c3ccccc3c2O)c2ccccc12
Parameter measured: TD50
Result: 3270 mg/kg/day (inactive)

stdin: Any idea what its TD50 is? The molecule is O=C(O)c1ccc([N+](=O)[O-])cc1
stdout: 220 mg/kg/day

stdin: Any idea what its TD50 is? The molecule is Nc1cc(S(=O)(=O)[O-])cc2cc(S(=O)(=O)[O-])c(N=Nc3ccc(-c4ccc(N=Nc5c(S(=O)(=O)[O-])cc6cc(S(=O)(=O)[O-])cc(N)c6c5O)c(O)c4)cc3O)c(O)c12.[Cu].[Cu].[Na+].[Na+].[Na+].[Na+]
stdout: 83.5 mg/kg/day (inactive)
